src = PubChem BioAssay (NCI)

Tested on: DLD-1 colon
Experiment: NCI tumour cell line growth inhibition, 48 h

compound	TGI
O=C(N/C(=C\c1cccc([N+](=O)[O-])c1)c1nc2c3c(ccc2[nH]1)C(=O)c1ccccc1C3=O)c1ccccc1	> 100 µM
C=C1C2CC(OC(C)=O)C3(C)C(c4ccoc4)OC(=O)[C@@H](O)[C@]13OC1C[C@H](OC(C)=O)C(C)(C)[C@H](C(O)C(=O)OC)[C@]12C (stereo partly drawn)	> 100 µM
Cc1ccccc1SC(/C=C/NNC1=NC(c2ccccc2)C(c2ccccc2)=NN1)c1ccccc1 (stereo not drawn)	> 100 µM
CC1CCCc2c1n[nH]c2CC1CC(=O)NC(=O)C1 (stereo not drawn)	> 100 µM
Cn1cnc(SC2=CC(=O)C=C3S[C@H]4C[C@@]23c2c(c(O)c3c5c2=NCCC=5C=N3)N4)c1CC(N)C(=O)O (stereo partly drawn)	26.3 µM
CC1=C(O)C(=O)C2C(=O)C1C(C)C2c1ccccc1 (stereo not drawn)	> 100 µM
C/C=C(\C)C(=O)OC1C2C(C)=CC(=O)C(O)C2(C)C2C3(O)OCC24C1OC(=O)C(OC(C)=O)C4C(C)C3O (stereo not drawn)	0.078 µM
O=C(/C=C/c1ccc(-c2ccccc2)cc1)c1ccccc1	> 100 µM
NCCCNCc1c2ccccc2c(CNCCCN)c2ccccc12	> 100 µM
O=C([O-])c1ccccc1Nc1ccccc1C(=O)[O-].[OH3+].[Zn+2]	> 83.7 µM
CC(=O)NNc1ncc(C(=O)/C=C/c2ccccc2C)s1	> 100 µM
COc1ccc(/C=C/c2cc(OC)c(OC)c(OC)c2)cc1OC	> 100 µM
N=C1c2ccccc2C(=O)c2c(NCCNCCO)ccc(O)c21	22.3 µM
CSc1nc2c(nc(N)n2C2OC(CO)C(O)C(O)C2O)c(=O)[nH]1 (stereo not drawn)	> 100 µM
C=CCN=C1NC(=O)C(CC(=O)Nc2cccc(Cl)c2)S1 (stereo not drawn)	> 100 µM
CCCC(=O)Oc1ccc(/C=N/NC(N)=S)nc1	> 100 µM
Cc1ccc([N+](=O)[O-])cc1NC(=O)C(=O)Cc1nc2ccc(C(=O)c3ccccc3)cc2[nH]c1=O	> 100 µM
CCCCN(C)CC(C(C)=O)C(c1ccccc1)c1c(O)c2ccccc2oc1=O (stereo not drawn)	> 100 µM
Oc1cccc2cccnc12	> 100 µM
CC(=O)OC1CC2C(C)(C)C(=O)C=C[C@]2(C)C2CCC3(C)C(c4ccoc4)C(=O)C4OC43[C@]12C (stereo partly drawn)	34 µM
O=C(NC1CCCCC1)NC12CC3CC(CC(F)(C3)C1)C2	> 100 µM
CCCCSC1CCSc2c1ccc1ccccc21 (stereo not drawn)	> 100 µM
C=CCC1(CN(C)C)CC/C(=C\c2cc(OC)c(OC)c(OC)c2)C1=O (stereo not drawn)	38.5 µM
